Taken from patent US20060257938A1.

Assay: Probe fluorescence ratio response to stearic acid relative to ADIFAB2
Assay type: binding
Conditions: response relative to ADIFAB2
VALUE KIND: DR/DR SA
Respond with the number and no other words.

Take a look at these entries with their results.
>>> numeric_readout("18I 31I 55M 73V 72A (protein, listed as Rattus norvegicus, PEPTIDE (1)...(131) wild-type rat intestinal fatty acid binding protein) AFDGTWKVDRNENYEKFIEKMGINVVKRKLIAHDNLKLTITQEGNKFTVKESSNMRNIDVVFELGVDFAYSAVDGTELTGTWTMEGNKLVGKFKRVDNGKELIAVREISGNELIQTYTYEGVEAKRIFKKE")
0.502
>>> numeric_readout("72T 73G 74I (protein, listed as Rattus norvegicus, PEPTIDE (1)...(131) wild-type rat intestinal fatty acid binding protein) AFDGTWKVDRNENYEKFMEKMGINVVKRKLGAHDNLKLTITQEGNKFTVKESSNFRNIDVVFELGVDFAYSTGIGTELTGTWTMEGNKLVGKFKRVDNGKELIAVREISGNELIQTYTYEGVEAKRIFKKE")
1.755

// query Given 18I 31F 73V 72A (protein, listed as Rattus norvegicus, PEPTIDE (1)...(131) wild-type rat intestinal fatty acid binding protein) AFDGTWKVDRNENYEKFIEKMGINVVKRKLFAHDNLKLTITQEGNKFTVKESSNFRNIDVVFELGVDFAYSAVDGTELTGTWTMEGNKLVGKFKRVDNGKELIAVREISGNELIQTYTYEGVEAKRIFKKE , respond with its DR/DR SA.
// result 1.294
